Source: patent US11987648B2

In this section we review reported Emax values for a set of compounds.
target: SST2 (Homo sapiens); assay: Hit Hunter cAMP XS+ assay, SST2 activation via Gi (reduction of forskolin-stimulated cAMP); assay type: cell-based; conditions: read-out: SST2 (EMax)
Sequence (P30874 whole entry): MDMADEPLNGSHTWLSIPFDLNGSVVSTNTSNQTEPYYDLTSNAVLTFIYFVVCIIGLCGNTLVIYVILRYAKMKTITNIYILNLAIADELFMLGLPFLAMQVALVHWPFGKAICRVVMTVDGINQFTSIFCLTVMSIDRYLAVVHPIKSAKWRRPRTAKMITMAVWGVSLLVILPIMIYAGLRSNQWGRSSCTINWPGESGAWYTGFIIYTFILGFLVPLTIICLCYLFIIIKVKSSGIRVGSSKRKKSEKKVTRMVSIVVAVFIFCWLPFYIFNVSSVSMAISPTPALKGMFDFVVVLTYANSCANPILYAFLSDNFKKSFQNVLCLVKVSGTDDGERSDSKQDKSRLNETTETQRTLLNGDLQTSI
*1 amine or outer side, *2 acyl side, *3 side chain or, on linkers, in order; H or OH if unused. Where a SMILES comes first, the peptide text is derived from it. Side-chain parts run from the residue outwards. [ ]: non-standard residue; d: D form. The star is where a group is joined. Ala(piperidin-4-yl) = O=C([C@H](CC1CCN([*:3])CC1)N[*:1])[*:2]; Ala(piperazin-1-yl) = N[C@@H](CN1CCNCC1)C(=O)O; Phe(3-OMe) = COc1cccc(C[C@H](N)C(=O)O)c1; Ethylenediamine = C(CN[*:2])N[*:1]; d(hPhe) = N[C@H](CCc1ccccc1)C(=O)O; Hyp = O=C(O)[C@@H]1C[C@@H](O)CN1; NMeF = CN[C@@H](Cc1ccccc1)C(=O)O; hPhe = N[C@@H](CCc1ccccc1)C(=O)O; 3Pal = N[C@@H](Cc1cccnc1)C(=O)O; Benzyl(4-Cl) = Clc1ccc(C*)cc1; Phg = N[C@H](C(=O)O)c1ccccc1; CO = O=C([*:1])[*:2]; Bn = c1ccc(C*)cc1
Field format: number, assumed %, no unit text.

Reference set (2 entries):
{"columns": ["COMPOUND", "Emax [%]"],
 "data": [
  ["COc1cccc(C[C@@H]2NC(=O)[C@H](Cc3ccc(OCc4ccccc4)cc3)NC(=O)[C@H](CC3CCNCC3)NC(=O)[C@@H](Cc3c[nH]c4ccccc34)NC(=O)[C@H](c3ccccc3)NC(=O)[C@@H]3C[C@@H](OC(=O)NCCN)CN3C2=O)c1 [Example 12] (cyclo([Hyp]([CO-Ethylenediamine])[Phg][dW][Ala(piperidin-4-yl)]Y(Bn)[Phe(3-OMe)]))", 97.6],
  ["CN1C(=O)[C@H](Cc2ccc(OCc3ccccc3)cc2)NC(=O)[C@H](CN2CCNCC2)NC(=O)[C@@H](Cc2c[nH]c3ccccc23)NC(=O)[C@H](CCc2ccccc2)NC(=O)[C@@H]2C[C@@H](OC(=O)NCCN)CN2C(=O)[C@@H]1Cc1ccccc1 [Example 57] (cyclo([Hyp]([CO-Ethylenediamine])[hPhe][dW][Ala(piperazin-1-yl)]Y(Bn)[NMeF]))", 96.5]
]}

Report its Emax with SST2 (Homo sapiens) as the test system: NCCNC(=O)O[C@@H]1C[C@H]2C(=O)N[C@H](CCc3ccccc3)C(=O)N[C@H](Cc3c[nH]c4ccccc34)C(=O)N[C@@H](CN3CCNCC3)C(=O)N[C@@H](Cc3ccc(OCc4ccc(Cl)cc4)cc3)C(=O)N[C@@H](Cc3cccnc3)C(=O)N2C1 [Example 58] (cyclo([3Pal][Hyp]([CO-Ethylenediamine])[d(hPhe)][dW][Ala(piperazin-1-yl)]Y(Benzyl(4-Cl))))
42.9
